Test system: human lung cancer strain NCI-H441
Format: cell-based
Where a SMILES comes first, the peptide text is derived from it. Bridges are numbered along the chain shown (N, C = ends). [ ]: non-standard residue; d: D form. The star is where a group is joined. hPhe(3-Cl-4-CF3) = N[C@@H](CCc1ccc(C(F)(F)F)c(Cl)c1)C(=O)O; NPrPhe(4-CF3) = CCCN[C@@H](Cc1ccc(C(F)(F)F)cc1)C(=O)O; NMeGly(cPent) = CN[C@H](C(=O)O)C1CCCC1; NMeL = CN[C@@H](CC(C)C)C(=O)O; Morpholide = C1CN(*)CCO1; Ac5c = NC1(C(=O)O)CCCC1; Sar = CNCC(=O)O
observation type: pIC50
Remember, pIC50 is on a log scale: it is -log10 of the molar concentration.

Reference set (2 entries):
INSERT INTO assay_data (compound, assay_result) VALUES
  ('CCCN1C(=O)CN(C)C(=O)CN(C)C(=O)[C@H]([C@@H](C)CC)NC(=O)[C@H](CC(C)C)N(C)C(=O)C[C@@H](C(=O)N2CCOCC2)NC(=O)[C@H](C2CCCC2)N(C)C(=O)C2(CCCC2)NC(=O)[C@@H]2CCCN2C(=O)[C@H](CCc2ccc(C(F)(F)F)c(Cl)c2)NC(=O)CN(C)C(=O)[C@@H]1Cc1ccc(C(F)(F)F)cc1 [PP0146] ([NMeL]I[Sar][Sar][NPrPhe(4-CF3)][Sar][hPhe(3-Cl-4-CF3)]P[Ac5c][NMeGly(cPent)]D-Morpholide; lactam N-11)', 7.62),
  ('CCC[C@H]1C(=O)N[C@@H]([C@@H](C)CC)C(=O)N(C)CC(=O)N(C)[C@H]2C/C=C\CCN(C2=O)[C@@H](Cc2ccc(C(F)(F)F)cc2)C(=O)N(C)CC(=O)N[C@@H](CCc2cc(F)c(Cl)c(F)c2)C(=O)N2C[C@H](OCC)C[C@H]2C(=O)NC2(CC(C)(C)C2)C(=O)N(C)[C@@H](C2CCCC2)C(=O)N(C)[C@H](C(=O)N(C)C)CC(=O)N1C [PP1758]', 8.22);

Here is the next item to consider.
Under human lung cancer strain NCI-H441, report pIC50 for CCCOC[C@H]1C(=O)N[C@@H]([C@@H](C)CC)C(=O)N(C)CC(=O)N(C)[C@H]2C/C=C\CCN(C2=O)[C@@H](Cc2ccc(C(F)(F)F)cc2)C(=O)N(C)CC(=O)N[C@@H](CCc2ccc(C(F)(F)F)c(OC)c2)C(=O)N2C[C@@H](C)C[C@H]2C(=O)NC2(CC(C)(C)C2)C(=O)N(C)[C@@H](C2CCCC2)C(=O)N(C)[C@H](C(=O)N(C)CC)CC(=O)N1C [PP1995]
7.75

----------
Molecular target: GDP-bound KRAS wild-type protein (Homo sapiens)
Sequence (P01116 1-188 isoform P01116-2): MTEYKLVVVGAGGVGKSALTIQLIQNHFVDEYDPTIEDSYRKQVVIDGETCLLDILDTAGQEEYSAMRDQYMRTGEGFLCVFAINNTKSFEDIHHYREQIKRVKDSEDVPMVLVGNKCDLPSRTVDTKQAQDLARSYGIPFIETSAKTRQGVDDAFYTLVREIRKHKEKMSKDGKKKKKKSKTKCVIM
Test: Binding to KRAS by surface plasmon resonance (SPR), dissociation constant KD
Conditions: 1:1 binding model
Measured pKd values are reported for all entries that follow.
On this scale, pKd is minus log10 of a concentration expressed in M (mol/L).

Here is how some molecules turned out for pKd.
INSERT INTO results (molecule, system_name, assay_result) VALUES
  ('CCC[C@H]1C(=O)N[C@@H]([C@@H](C)CC)C(=O)N(C2CC2)CC(=O)N(C)[C@H]2C/C=C\CCN(C2=O)[C@@H](Cc2ccc(C)cc2)C(=O)N(C)CC(=O)N[C@@H](CCc2ccc(Cl)c(Cl)c2)C(=O)N2C[C@H](OCC)C[C@H]2C(=O)NC2(CC(C)(C)C2)C(=O)N(C)[C@@H](CC2CC2)C(=O)N(C)[C@H](C(=O)N(C)C)CC(=O)N1C [PP2805]', 'GDP-bound KRAS wild-type protein (Homo sapiens)', 8.43),
  ('CC[C@H](C)[C@@H]1NC(=O)[C@H](COC)N(C)C(=O)C[C@@H](C(=O)N(C)C)N(C)C(=O)[C@H](C2CCCC2)N(C)C(=O)C2(CC(C)(C)C2)NC(=O)[C@@H]2C[C@@H](C)CN2C(=O)[C@H](CCc2ccc(C(F)(F)F)c(OC)c2)NC(=O)CN(C)C(=O)[C@H](Cc2ccc(C)cc2)N2CC/C=C\C[C@@H](C2=O)N(C)C(=O)CN(C)C1=O [PP2387]', 'GDP-bound KRAS wild-type protein (Homo sapiens)', 9.96),
  ('C#CCN1CC(=O)N(C)[C@H]2C/C=C\CCN(C2=O)[C@@H](Cc2ccc(C)cc2)C(=O)N(C)CC(=O)N[C@@H](CCc2ccc(C(F)(F)F)c(OC)c2)C(=O)N2C[C@H](OCC)C[C@H]2C(=O)NC2(CC(C)(C)C2)C(=O)N(C)[C@@H](C2CCCC2)C(=O)N(C)[C@H](C(=O)N(C)C)CC(=O)N(C)[C@@H](CCC)C(=O)N[C@@H](CC(C)C)C1=O [PP2514]', 'GDP-bound KRAS wild-type protein (Homo sapiens)', 8.62);

Provide measured pKd on GDP-bound KRAS wild-type protein (Homo sapiens) for C#CC[C@H]1C(=O)N[C@@H]([C@@H](C)CC)C(=O)N(C)CC(=O)N(C)[C@H]2C/C=C\CCN(C2=O)[C@@H](Cc2ccc(C)cc2)C(=O)N(C)CC(=O)N[C@@H](CCc2cc(F)c(C(F)(F)F)c(F)c2)C(=O)N2CC3(CC3)C[C@H]2C(=O)NC2(CC(C)(C)C2)C(=O)N(C)[C@@H](C2CCCC2)C(=O)N(C)[C@H](C(=O)N(C)C)CC(=O)N1C [PP2978] please.
9.96

Lab note: record pKd of CCO[C@@H]1C[C@H]2C(=O)N(C)C3(CC(C)(C)C3)C(=O)N(C)[C@@H](C(CC)CC)C(=O)N(C)[C@H](C(=O)N(C)C)CC(=O)N(C)[C@@H](COC)C(=O)N[C@@H]([C@@H](C)CC)C(=O)N(C)CC(=O)N(C)[C@H]3C/C=C\CCN(C3=O)[C@@H](Cc3ccc(C)cc3)C(=O)N(C)CC(=O)N[C@@H](CCc3ccc(Cl)c(Cl)c3)C(=O)N2C1 [PP2810] tested on GDP-bound KRAS wild-type protein (Homo sapiens).
9.34

Look up GDP-bound KRAS wild-type protein (Homo sapiens) data: pKd of CCCOC[C@H]1C(=O)N[C@@H]([C@@H](C)CC)C(=O)N(C2CC2)CC(=O)N(C)[C@H]2C/C=C\CCN(C2=O)[C@@H](Cc2ccc(C)cc2)C(=O)N(C)CC(=O)N[C@@H](CCc2ccc(C(F)(F)F)c(OC)c2)C(=O)N2C[C@@H](C)C[C@H]2C(=O)N(C)C2(CCC2)C(=O)N(C)[C@@H](C2CCCC2)C(=O)N(C)[C@H](C(=O)N(C)C)CC(=O)N1C [PP2367] , then report it.
10.12

Determine reported pKd for CCO[C@@H]1C[C@H]2C(=O)NC3(CC(C)(C)C3)C(=O)N(C)[C@@H](C(CC)CC)C(=O)N(C)[C@H](C(=O)N(C)C)CC(=O)N(C)[C@@H](COC)C(=O)N[C@@H]([C@@H](C)CC)C(=O)N(C)CC(=O)N(C)[C@H]3C/C=C\CCN(C3=O)[C@@H](CC3CCCCC3)C(=O)N(C)CC(=O)N[C@@H](CCc3ccc(C(F)(F)F)c(Cl)c3)C(=O)N2C1 [PP2468] ; test system: GDP-bound KRAS wild-type protein (Homo sapiens).
8.89

State pKd on GDP-bound KRAS wild-type protein (Homo sapiens). Entry: CCCOC[C@H]1C(=O)N[C@@H]([C@@H](C)CC)C(=O)N(C)CC(=O)N(C)[C@H]2C/C=C\CCN(C2=O)[C@@H](Cc2ccc(C(F)(F)F)cc2)C(=O)N(C)CC(=O)N[C@@H](CCc2ccc(Cl)c(Cl)c2)C(=O)N2C[C@H](OCC)C[C@H]2C(=O)NC2(CCC2)C(=O)N(C)[C@@H](C2CCCC2)C(=O)N(C)[C@H](C(=O)N(C)CCC)CC(=O)N1C [PP2830]
9.43

Provide GDP-bound KRAS wild-type protein (Homo sapiens) pKd reading for CCC(CC)[C@H]1C(=O)N(C)[C@H](C(=O)N(C)C)CC(=O)N(C)[C@@H](COC)C(=O)N[C@@H]([C@@H](C)CC)C(=O)N(C)CC(=O)N(C)[C@H]2C/C=C\CCN(C2=O)[C@@H](CC2CCC(F)(F)CC2)C(=O)N(C)CC(=O)N[C@@H](CCc2cc(F)c(C(F)(F)F)c(F)c2)C(=O)N2C[C@@H](C)C[C@H]2C(=O)NC2(CC(C)(C)C2)C(=O)N1C [PP2448] .
8.85

Enter measured pKd, system GDP-bound KRAS wild-type protein (Homo sapiens), for the molecule shown: CCOC[C@H]1C(=O)N[C@@H]([C@@H](C)CC)C(=O)N(C)CC(=O)N(C)[C@H]2C/C=C\CCN(C2=O)[C@@H](Cc2ccc(C(F)(F)F)cc2)C(=O)N(C)CC(=O)N[C@@H](CCc2ccc(Cl)c(Cl)c2)C(=O)N2C[C@H](OCC)C[C@H]2C(=O)NC2(CC(C)(C)C2)C(=O)N(C)[C@@H](CC(C)(C)C)C(=O)N(C)[C@H](C(=O)N(C)C)CC(=O)N1C [PP2740]
9.77

Consider the molecule CCC[C@H]1C(=O)N[C@@H]([C@@H](C)CC)C(=O)N(C)CC(=O)N(C)[C@H]2C/C=C\CCN(C2=O)[C@@H](Cc2ccc(C(F)F)cc2)C(=O)N(C)CC(=O)N[C@@H](CCc2ccc(Cl)c(Cl)c2)C(=O)N2C[C@H](OC(C)C)C[C@H]2C(=O)NC2(CC(C)(C)C2)C(=O)N(C)[C@@H](C(CC)CC)C(=O)N(C)[C@H](C(=O)N(C)C)CC(=O)N1C [PP2535] tested on GDP-bound KRAS wild-type protein (Homo sapiens); state its pKd.
9.27

Values from patent EP4603105A1
